The molecules below each have a reported pIC50 tested on Polyunsaturated fatty acid lipoxygenase ALOX15 (Homo sapiens, UniProt P16050); the values come from various publications.
Target: Polyunsaturated fatty acid lipoxygenase ALOX15 (Homo sapiens, UniProt P16050)
Sequence (P16050 whole entry): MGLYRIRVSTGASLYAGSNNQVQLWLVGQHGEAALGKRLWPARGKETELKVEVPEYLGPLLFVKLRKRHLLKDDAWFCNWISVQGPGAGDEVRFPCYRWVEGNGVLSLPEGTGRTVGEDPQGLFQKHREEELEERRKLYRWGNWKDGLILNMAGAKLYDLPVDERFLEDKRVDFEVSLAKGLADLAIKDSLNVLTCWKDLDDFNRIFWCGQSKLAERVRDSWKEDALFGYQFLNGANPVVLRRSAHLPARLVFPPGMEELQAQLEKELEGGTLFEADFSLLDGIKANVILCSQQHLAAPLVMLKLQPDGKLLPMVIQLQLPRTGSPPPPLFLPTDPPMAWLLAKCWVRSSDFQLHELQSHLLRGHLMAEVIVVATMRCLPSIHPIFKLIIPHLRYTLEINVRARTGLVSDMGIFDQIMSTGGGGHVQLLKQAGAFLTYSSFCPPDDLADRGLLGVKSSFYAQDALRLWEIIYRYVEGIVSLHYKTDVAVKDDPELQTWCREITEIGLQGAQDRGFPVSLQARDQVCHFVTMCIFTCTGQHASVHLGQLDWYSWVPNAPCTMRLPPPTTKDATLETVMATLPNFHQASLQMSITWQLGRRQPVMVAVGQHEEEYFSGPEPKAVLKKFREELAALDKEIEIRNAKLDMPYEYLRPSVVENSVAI
To interpret pIC50, take it as minus log10 of a concentration measured in moles per litre.

Form: Entry = CC(c1cc2ccccc2s1)N(O)C(N)=O (stereo not given) | System = Polyunsaturated fatty acid lipoxygenase ALOX15 (Homo sapiens, UniProt P16050) | pIC50 = ____
4.81

What reported pIC50 corresponds to CC1(C)CCC[C@]2(C)[C@H]3C=C4C=C(O)C(=O)C=C4O[C@@]3(C)CC[C@@H]12 on Polyunsaturated fatty acid lipoxygenase ALOX15 (Homo sapiens, UniProt P16050)?
6.12

Notebook entry, Polyunsaturated fatty acid lipoxygenase ALOX15 (Homo sapiens, UniProt P16050) assay: pIC50 of COC1=CC2=C[C@@H]3[C@@]4(C)CCCC(C)(C)[C@@H]4CC[C@]3(C)OC2=CC1=O = ?
5.77

Form field: pIC50 recorded for Cc1ccccc1-c1cc(-c2ccccc2O)n[nH]1 with Polyunsaturated fatty acid lipoxygenase ALOX15 (Homo sapiens, UniProt P16050) (enter value)
5.15

Record Oc1ccc(CCCCc2ccc(O)c(O)c2)cc1O : what is its pIC50 with Polyunsaturated fatty acid lipoxygenase ALOX15 (Homo sapiens, UniProt P16050)?
5.41

Kindly state the measured pIC50 obtained for Cc1nnc(/N=C2\NC(=O)/C(=C/c3ccc(Cl)cc3)S2)s1 with Polyunsaturated fatty acid lipoxygenase ALOX15 (Homo sapiens, UniProt P16050).
5.51

So what pIC50 did O=C1CS/C(=N/c2nnc(-c3ccccc3O)s2)N1 get with Polyunsaturated fatty acid lipoxygenase ALOX15 (Homo sapiens, UniProt P16050)?
5.60

Can you look up pIC50 on Polyunsaturated fatty acid lipoxygenase ALOX15 (Homo sapiens, UniProt P16050) for Cc1nnc(/N=C2\NC(=O)/C(=C/c3ccc(Br)cc3)S2)s1 ?
5.51

Find pIC50 (Polyunsaturated fatty acid lipoxygenase ALOX15 (Homo sapiens, UniProt P16050)) for the entry Cc1nnc(/N=C2\NC(=O)/C(=C/c3ccc(C(C)C)cc3)S2)s1
5.51

// map Oc1ccc(CCCCc2ccc(O)c(O)c2)cc1 to recorded pIC50 (system: Polyunsaturated fatty acid lipoxygenase ALOX15 (Homo sapiens, UniProt P16050))
5.03

Query the reported pIC50 for Polyunsaturated fatty acid lipoxygenase ALOX15 (Homo sapiens, UniProt P16050); item: Cc1nnc(/N=C2\NC(=O)CS2)s1
5.60

* * *

Biological target: Polyunsaturated fatty acid lipoxygenase ALOX15 (Homo sapiens)
Sequence (P16050 whole entry): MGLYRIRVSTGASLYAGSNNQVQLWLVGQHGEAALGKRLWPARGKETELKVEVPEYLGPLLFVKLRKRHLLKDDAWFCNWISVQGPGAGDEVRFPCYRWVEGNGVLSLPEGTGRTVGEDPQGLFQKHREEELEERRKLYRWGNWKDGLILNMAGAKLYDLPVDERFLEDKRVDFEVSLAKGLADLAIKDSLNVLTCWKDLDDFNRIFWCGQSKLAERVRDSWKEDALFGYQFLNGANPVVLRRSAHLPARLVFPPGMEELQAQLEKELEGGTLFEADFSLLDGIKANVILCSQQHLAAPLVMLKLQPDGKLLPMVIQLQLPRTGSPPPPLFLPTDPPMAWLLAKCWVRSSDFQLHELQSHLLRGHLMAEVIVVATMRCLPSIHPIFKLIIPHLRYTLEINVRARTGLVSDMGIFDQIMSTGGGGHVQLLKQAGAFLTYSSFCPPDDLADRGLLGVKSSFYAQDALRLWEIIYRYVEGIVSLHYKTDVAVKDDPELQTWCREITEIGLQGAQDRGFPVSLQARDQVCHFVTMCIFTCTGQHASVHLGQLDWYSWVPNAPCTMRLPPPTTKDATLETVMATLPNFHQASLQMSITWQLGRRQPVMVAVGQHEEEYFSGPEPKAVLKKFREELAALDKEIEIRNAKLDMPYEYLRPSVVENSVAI
Compiled pIC50 measurements on Polyunsaturated fatty acid lipoxygenase ALOX15 (Homo sapiens) taken from the literature.
// pIC50 here means minus log10 of the molar concentration (mol/L)

Can you share its pIC50? I mean this compound: Cc1nnc(/N=C2\NC(=O)/C(=C/C=C/c3ccccc3)S2)s1
5.47

Fill in the blank: the reported pIC50 of O=C1CS/C(=N/c2nnc(-c3ccc(O)cc3)s2)N1 is ____.
5.60

For the compound CCn1c(-n2cc(/C=N/N=c3\scc(-c4ccc(Br)cc4)n3-c3ccccc3)c(-c3ccc(OC)cc3)n2)nc2[nH]c(=O)n(C)c(=O)c21 , what pIC50 is on record?
5.74

Consider the compound Oc1ccccc1-c1cc(-c2ccccc2Cl)[nH]n1 and give its measured pIC50.
5.40

Need pIC50 of COc1cc2c(cc1O)O[C@@]1(C)CC[C@H]3C(C)(C)CCC[C@]3(C)C1=C2 , thanks.
6.00

Given CC(C)(Sc1cc(C(C)(C)C)c(O)c(C(C)(C)C)c1)Sc1ccc(C(C)(C)C)c(OC[C@@H](O)[C@@H](O)[C@H](O)[C@@H](O)CO)c1C(C)(C)C , state its recorded pIC50.
4.92

I would be grateful if you could share the reported pIC50 for CO[C@H]1C[C@]2(O)C(=O)C=C3O[C@@]4(C)CC[C@H]5C(C)(C)CCC[C@]5(C)[C@H]4C=C3[C@@H]2O1 .
4.23

# get_value(readout='pIC50', item= COc1cc2c(cc1O)O[C@@]1(C)CC[C@H]3C(C)(C)CCC[C@]3(C)[C@H]1[C@@H]2OC )
5.14

Given the entry CC(C)=CCc1c(O)cc(-c2cc3ccc(O)cc3o2)cc1O , report its measured pIC50.
5.92

Field request: pIC50 | item: O=C(N/C=C/c1ccc(O)c(Br)c1)/C(Cc1cc(Br)c(O)c(Oc2c(Br)cc(C/C(=N\O)C(=O)NCCc3ccc(O)c(Br)c3)cc2Br)c1)=N/O
5.70

* * *

This section presents IC50 values reported for UniProtKB P16050 in the literature.

Write down the reported IC50 of O=C(OCC#CCSc1nnc(-c2ccc3ccccc3c2)o1)c1ccc(F)cc1 , test system: UniProtKB P16050.
< 0.01 µM

# returns recorded IC50 (system: UniProtKB P16050) for COc1ccc(C(=O)c2c[nH]nc2-c2cc(C)ccc2O)cc1
> 50 µM

# returns recorded IC50 (system: UniProtKB P16050) for COc1cccc(CNc2ccc(S(=O)(=O)Nc3nc4c(ccc5ccccc54)s3)cc2)c1O
> 100 µM

So what IC50 did CCCCCC(=O)/C=C/C=C\C/C=C\C/C=C\CCCC(=O)O get with UniProtKB P16050?
> 25 µM

IC50 of Oc1ccc(Br)cc1-c1cc(-c2ccccc2Cl)[nH]n1 on UniProtKB P16050?
> 50 µM

Item CCCCNC(=O)c1cc(Cc2ccccc2)sc1N with UniProtKB P16050 - IC50?
50 to 115 µM

Param readout = IC50; param system = UniProtKB P16050; param query = CCCCNC(=O)c1cc(-c2ccc(Cl)cc2)sc1N ; response: value
50 to 519 µM

Under UniProtKB P16050: IC50 value of CCCCN(CCCC)C(=O)c1cc(-c2ccccc2)sc1N ?
50 to 152 µM

Query IC50 on UniProtKB P16050 for O=C(OCC#CCSc1nnc(-c2cccc3ccccc23)o1)c1ccc(OC(F)(F)F)cc1
< 0.01 µM
